- Species: Rattus norvegicus
- assay-comment: DrugMatrix - Regimen: Daily Repeat
- Assay type: toxicity, organism-based, Sprague-Dawley
- Parameters: regimen Daily Repeat, gender Male, age 6-8 weeks
- run-conditions: in vivo, po, 1500 mg/kg, 72 h, tissue Plasma, route oral GAVAGE, dose level High, time 3 day, vehicle .5 % CMC

compound	PHOSPHORUS, mg/dL
O=C(N[C@H](CO)[C@H](O)c1ccc([N+](=O)[O-])cc1)C(Cl)Cl [CHLORAMPHENICOL]	10.53
NC(=O)c1cnccn1 [PYRAZINAMIDE]	10.47
C[C@]1(Cn2ccnn2)[C@H](C(=O)O)N2C(=O)C[C@H]2S1(=O)=O [TAZOBACTAM]	13.27
Cc1cc(=O)n(-c2ccccc2)n1C [ANTIPYRINE]	10.07
CNC(=C[N+](=O)[O-])NCCSCc1ccc(CN(C)C)o1 [RANITIDINE]	12.6
Cc1ccc(S(=O)(=O)NC(=O)NN2CC3CCCC3C2)cc1 (configuration not stated) [GLICLAZIDE]	11.03
CO[C@H]1/C=C/O[C@@]2(C)Oc3c(C)c(O)c4c(c3C2=O)C2=NC3(CCN(CC(C)C)CC3)NC2=C(NC(=O)/C(C)=C\C=C\[C@H](C)[C@H](O)[C@@H](C)[C@@H](O)[C@@H](C)[C@H](OC(C)=O)[C@@H]1C)C4=O [RIFABUTIN]	12.37
